Would you kindly list survival for each of these compounds?
Tested on: DeltatarO mutant
Experiment: S. aureus survival, RN4220 and DeltatarO strains – OD600, teichoic acid synthesis inhibitors, primary screen (AID 463173)
Details: S. aureus RN4220 wild type/DeltatarO growth, OD600, 18 h, hits give low values, screened at 18.75 µg/mL (by protocol)
Hit rate of the full screen: of about 52,000 compounds, about 4,300 (8.3%) were called active. This excerpt belongs to a sample that is enriched for actives.
Express the result in % but write the number alone.

Field request: survival | item: Cn1nc(C(=O)N2CCN(c3cccc(Cl)c3)CC2)c2c1-c1ccccc1S(=O)(=O)C2
37

Further, for COc1ccc2cc3cc(C(=O)Nc4ccccc4C)oc3nc2c1 ?
116

Now the same for Cn1nc(C(=O)N2CCN(c3ccccc3)CC2)c2c1-c1ccccc1S(=O)(=O)C2
51

// same read-out, input: Cn1nc(C(=O)N2CCN(c3ccccc3)CC2)c2c1-c1ccccc1SC2
80

Thanks! And Cc1ccc(C)c(N2CCN(C(=O)c3nn(C)c4c3CS(=O)(=O)c3ccccc3-4)CC2)c1 ?
49

====

System: DeltatarO mutant
Assay: S. aureus survival, RN4220 and DeltatarO strains – OD600, teichoic acid synthesis inhibitors, primary screen (AID 463173)
Conditions: S. aureus RN4220 wild type/DeltatarO growth, OD600, 18 h, hits give low values, screened at 18.75 µg/mL (by protocol)
In all, about 52,000 compounds went through this assay and about 4,300 (8.3%) were called active. What follows is part of a selection rich in actives, with near analogues and random picks from the rest.
measuredEndpoint: survival (%)
Your answer is read as %, so omit the unit and give the number.

// returns reported survival for input Cc1c(Cl)cccc1NS(=O)(=O)c1ccc(NS(=O)(=O)c2ccc3c(c2)OCCO3)cc1
13

Another molecule to check: COc1ccc(C2=C(C)C(N3CCC(C(=O)NCc4ccc(C)o4)CC3)=NS2(=O)=O)cc1
74

Same for CCOC(=O)Cn1nnc(-c2ccccc2)n1
95

Subsequent entry: CCCOc1ccc(Nc2nc(SC)ncc2C(=O)OCC)cc1
65

Query CCc1ccc2oc(-c3cccc(NC(=O)C(C)(C)Oc4ccc(Br)cc4)c3)nc2c1 next
36

Queued: COc1ccc2c(c1)c(=O)c(C(=O)c1ccc(F)cc1)cn2CC(=O)Nc1ccc2c(c1)OCCO2
65

Follow-up item: Cn1nc(-c2ccc(OCC(=O)Nc3ccccc3)cc2)c2ccccc2c1=O
47

Input O=C(Nc1nc2ccc(F)cc2s1)c1nc(S(=O)(=O)Cc2ccccc2)ncc1Cl
17

Field entry: CCOC(=O)c1ccc(Nc2c(-c3ccc(O)c(OC)c3)nc3nc[nH]n23)cc1
93

Try this molecule next: CNC(=O)COc1ccc(NC(=O)c2ccc(-c3nn(C)c(=O)c4ccccc34)cc2)cc1
75

Next molecule up: CCOC(=O)c1cnc2c(ccc3ccccc32)c1Nc1ccc(OC)c(OC)c1
7

Try the molecule O=C(c1ccc2c(c1)N(Cc1ccc(Cl)cc1)C(=O)c1ccccc1S2(=O)=O)N1CCN(Cc2ccccc2)CC1
78

// same read-out, input: O=C(Cn1ncc2c3ccccc3n(Cc3ccccc3F)c2c1=O)NCc1ccccc1Cl
78

Note, next up: CCOC(=O)c1ccc(Nc2c(-c3cccc(O)c3)nc3nc[nH]n23)cc1
46

Same again, this time with CCOC(=O)c1c(C)[nH]c(C)c1S(=O)(=O)N1CCC(C(=O)Nc2ccc(C)c(N(C)C)c2)CC1
84

Also need CCc1ccc2oc(-c3ccc(NC(=O)c4cccc(Cl)c4Cl)cc3)nc2c1 , thanks.
63

What do we get for CCc1ccc2oc(-c3cccc(NC(=O)c4ccc(-c5cccc([N+](=O)[O-])c5)o4)c3)nc2c1 ?
58

Also CC(=O)OCc1cnc(C)c2oc(=O)c(C(=O)Nc3ccc(C)cc3Cl)cc12 ?
128

Again, but for Cc1cc2nc(-c3ccc(NC(=O)c4cc5ccccc5o4)cc3)oc2cc1C
51

Would you mind doing COc1ccc2nc(NC(=O)c3nc(S(=O)(=O)Cc4ccccc4)ncc3Cl)sc2c1 as well?
77

Similarly, CC(=O)c1ccc(NS(=O)(=O)c2cccc(S(=O)(=O)c3ccc(Cl)cc3)c2)cc1 ?
124

Query CCOC(=O)c1ccc(Nc2c(-c3ccc(O)cc3)nc3nc[nH]n23)cc1 next
91

Same question for CNC(=O)c1ccc(NC(=O)COc2ccc(-c3nn(C)c(=O)c4ccccc34)cc2)cc1 please.
62

Would you mind doing Cc1ccc(-n2nc3c(N4CCC(C(=O)N5CCCCC5)CC4)nnc(C)c3c2C)cc1 as well?
85

Now consider COc1ccc(N2CCN(C(=O)Nc3ccc(Cl)cc3)CC2)cc1 .
168

Continue with CCC(C)c1ccc2oc(-c3ccc(NC(=O)c4cc5ccccc5o4)cc3)nc2c1 (stereo not given)
46

And then O=S(=O)(Nc1ccc(Cl)cc1)c1cccc(S(=O)(=O)c2ccc(Cl)c(Cl)c2)c1 , what is it?
37

Another: CCOC(=O)c1cnc2c(ccc3ccccc32)c1Nc1ccc(C(C)=O)cc1
1

Next record, please: CCc1ccc2oc(-c3cccc(NC(=O)c4cc5ccccc5o4)c3)nc2c1
14

COc1ccccc1NC(=O)C1CCC(CNS(=O)(=O)c2ccc3c(c2)CC(C)N3C(C)=O)CC1 (stereo not given) ?
58

Another: CC(=O)N1CCc2c(sc(NC(=O)CSc3ccc(C)cc3)c2-c2nc3ccccc3s2)C1
92

Please give the result for Cc1ccc(CS(=O)(=O)c2ncc(Cl)c(C(=O)Nc3nc4ccc(C)cc4s3)n2)cc1 too.
6

Lookup CCOC(=O)c1cnc2c(ccc3ccccc32)c1Nc1ccccc1O
69

Moving on to CCc1ccc2oc(-c3cccc(NC(=O)COc4ccccc4Cl)c3)nc2c1
57

Now try Cc1cccc(C)c1NS(=O)(=O)c1ccc(NS(=O)(=O)c2ccc3c(c2)OCCO3)cc1 .
110

Lookup CN1CCN(S(=O)(=O)c2cccc(S(=O)(=O)c3ccc(Cl)c(Cl)c3)c2)CC1
102

Thanks! And Cc1ccc(CS(=O)(=O)c2ncc(Cl)c(C(=O)Nc3nc4ccc(F)cc4s3)n2)cc1 ?
9

Then this molecule: COc1ccccc1NC(=O)COc1ccc(-c2nn(C)c(=O)c3ccccc23)cc1
37

And what about the molecule CCn1c(SCC(=O)OC)nnc1-c1ccc(O)cc1 ?
99

Ok, now CCc1ccc2oc(-c3ccc(N)cc3)nc2c1
34

====

Tested on: DeltatarO mutant
Assay: S. aureus survival, RN4220 and DeltatarO strains – OD600, teichoic acid synthesis inhibitors, primary screen (AID 463173)
Settings: S. aureus RN4220 wild type/DeltatarO growth, OD600, 18 h, hits give low values, screened at 18.75 µg/mL (by protocol)
Hit rate of the full screen: of about 52,000 compounds, about 4,300 (8.3%) were called active. Only a selection was taken, and actives are over-represented in it overall.
# label = true if survival < 60% else false

survival strictly < 60% for this molecule? Cc1c(NC(=O)c2sc3ccccc3c2Cl)cccc1-c1nc2ccccc2o1
true

What about Cc1ccc(-c2nc3cc(Cl)ccc3o2)cc1NC(=O)COc1ccc(F)cc1 ?
true

Also O=C(CSCc1ccc(F)cc1)N1CCN(c2ccccc2F)CC1 ?
false

Please answer likewise for Cc1ccc(NC(=O)c2ccc(=O)n(CC(=O)Nc3ccccc3)n2)cc1
false

Now consider CCc1ccc(-n2c(CCC(=O)O)ccc2-c2cccs2)cc1 and answer again.
true

Further, for Cc1ccc(C)c(N2CCN(C(=O)c3cc4cc5ccc(C)cc5nc4s3)CC2)c1 ?
false

Query Cc1ccc(C(=O)Nc2cc(-c3nc4cc(Cl)ccc4o3)ccc2C)c(C)c1 next
false

Another molecule to look at: COc1ccc2oc(-c3ccc(C)c(NC(=O)c4sc5ccccc5c4Cl)c3)nc2c1
true

====

System: DeltatarO mutant
Assay: S. aureus survival, RN4220 and DeltatarO strains – OD600, teichoic acid synthesis inhibitors, primary screen (AID 463173)
Settings: S. aureus RN4220 wild type/DeltatarO growth, OD600, 18 h, hits give low values, screened at 18.75 µg/mL (by protocol)
In all, about 52,000 compounds went through this assay and about 4,300 (8.3%) were called active. The list comes from a sample in which actives are over-represented; it also holds close analogues and randomly drawn compounds.
Can you tell me survival for the items I'm about to list?
Number in %, nothing else.

For CCN1C(=O)CC(n2c(C)nc3ccccc32)C1=O (stereo not given) , what is its reported survival?
96

Now the same for O=C(Nc1ccc(F)cc1)c1cccc(N2CCCS2(=O)=O)c1
70

For COc1cccc(NC(=O)CSc2nc3c([nH]c4ccccc43)c(=O)n2-c2ccccc2)c1 then?
76

Next record, please: O=C(CSc1nc2c([nH]c3ccccc32)c(=O)n1-c1ccccc1)c1ccccc1
77

Do the same for COc1ccc(Cl)cc1NC(=O)c1cc(S(=O)(=O)N(C)Cc2ccccc2)ccc1F please
74

Further, for COc1ccc(-n2c(SCC(=O)c3ccccc3)nc3c([nH]c4ccccc43)c2=O)cc1 ?
98

What do you get for COc1ccc(CC(=O)NCc2ccc3c(c2)CCN3C(=O)c2ccc(Cl)cc2)cc1OC ?
86

Try this compound too: Cc1cccc(N2CCN(c3ccc(NC(=O)c4ccccc4)cc3C(=O)O)CC2C)c1 (stereo not given)
81

Thanks! And CCN1CCN(c2c(S(=O)(=O)c3ccc(Cl)cc3)cnc3ccccc23)CC1 ?
77

Cool, now Cc1cc(C)c(S(=O)(=O)NCCc2cc3cc(C)c(C)cc3[nH]c2=O)c(C)c1
63

Next: O=[N+]([O-])c1ccc(S(=O)(=O)N2CCn3cccc3C2c2ccc(Br)cc2)cc1 (stereo not given)
75

Try this compound next: CCOc1ccccc1NC(=O)N1CCCC(c2nc3c(nnn3Cc3ccc(C)cc3)c(=O)[nH]2)C1 (stereo not given)
82

Same for Cc1ccc(S(=O)(=O)c2nnn3c2nc(N2CCCCC2)c2sccc23)cc1
104

Now this one: CCOc1ccc(NC(=O)c2ccc3c(=O)n4c(nc3c2)CCCCC4)cc1
139

One more compound: O=C(CSc1nc2c([nH]c3ccccc32)c(=O)n1-c1cccc(Cl)c1)c1ccccc1
47

Ok, now Cc1ccc(-c2c(C)n3c4c(=O)n(C)c(=O)n(C)c4nc3n2CCCO)cc1
81

Now give it for CCOc1ccc(-n2c(SCC(=O)Nc3cc(C)ccc3C)nc3c([nH]c4ccccc43)c2=O)cc1 too.
75

// next record COc1cccc(OC)c1Cn1nnc2c(=O)[nH]c(C3CCN(C(=O)c4ccccc4)CC3)nc21
56

Try O=C(CSc1nccn1C1CCCC1)Nc1ccc(C(F)(F)F)cc1 next.
101

Can you check COc1cccc(N2CCN(C(=O)C(CCSC)NS(=O)(=O)c3ccc4c(c3)oc(=O)n4C)CC2)c1 (stereo not given) next?
106
